study_target: Casein kinase II (Homo sapiens) (UniProt P67870+P68400+P19784)
Sequence (P19784 whole entry, looked up): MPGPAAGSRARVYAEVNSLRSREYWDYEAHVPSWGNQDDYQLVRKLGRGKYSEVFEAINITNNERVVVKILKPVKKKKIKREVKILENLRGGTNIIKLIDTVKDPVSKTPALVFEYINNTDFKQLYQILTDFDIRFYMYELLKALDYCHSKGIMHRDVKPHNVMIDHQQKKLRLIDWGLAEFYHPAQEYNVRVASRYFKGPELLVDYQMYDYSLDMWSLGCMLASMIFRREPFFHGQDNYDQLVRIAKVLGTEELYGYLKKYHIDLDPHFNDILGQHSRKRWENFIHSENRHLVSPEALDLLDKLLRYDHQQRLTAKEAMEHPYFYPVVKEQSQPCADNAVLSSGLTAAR
Sequence (P67870 whole entry, looked up): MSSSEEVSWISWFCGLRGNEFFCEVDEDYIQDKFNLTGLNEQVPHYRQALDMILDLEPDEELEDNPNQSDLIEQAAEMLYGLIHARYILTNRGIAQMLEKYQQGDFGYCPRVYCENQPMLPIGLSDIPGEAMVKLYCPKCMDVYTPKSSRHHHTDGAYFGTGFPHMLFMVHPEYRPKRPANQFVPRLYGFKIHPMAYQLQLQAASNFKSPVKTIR
Sequence (P68400 whole entry, looked up): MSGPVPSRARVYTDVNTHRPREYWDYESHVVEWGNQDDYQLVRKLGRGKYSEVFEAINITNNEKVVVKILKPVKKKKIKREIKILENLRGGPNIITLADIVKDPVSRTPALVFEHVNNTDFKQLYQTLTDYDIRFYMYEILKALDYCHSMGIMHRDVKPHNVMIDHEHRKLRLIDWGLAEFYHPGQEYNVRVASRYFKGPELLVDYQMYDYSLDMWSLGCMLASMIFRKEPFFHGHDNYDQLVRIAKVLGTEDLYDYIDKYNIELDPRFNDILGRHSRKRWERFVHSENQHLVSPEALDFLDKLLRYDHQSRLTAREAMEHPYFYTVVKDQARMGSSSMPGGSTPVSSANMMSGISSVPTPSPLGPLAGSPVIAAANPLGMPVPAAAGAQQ
experimental_conditions: at 10 µM
Description: Millipore: Percentage of residual kinase activity of CSNK2A1 at 10uM relative to control. Control inhibitor: Jnk Inhibitor II at 100.0uM. Buffer: 20 mM HEPES pH 7.6, 0.15 M NaCl, 0.1 mM EDTA, 5 mM DTT, 0.1% Triton X-100
residual activity values for the molecules below.
Field: numeric (%). Do not append units.

Reference set, count: 10
>>> result("O=C1C(Cl)=C(N2C(=O)CCC2=O)C(=O)c2ccccc21")
100
>>> result("NC(=O)c1ccc(-c2nc(-c3ccc4c(c3)OCCO4)c(-c3ccccn3)[nH]2)cc1")
97
>>> result("CC(C)c1nn(-c2c(Cl)cccc2Cl)c2nc(Cc3ccc(OCCO)cc3)[nH]c(=O)c12")
96
>>> result("Nc1n[nH]c2nc3ccccc3nc12")
62
>>> result("O=C1NC(=O)C(c2cn(CCCO)c3ncccc23)=C1c1cnccn1")
66
>>> result("O=C1Nc2ccc(Cl)cc2/C1=C/c1cc(Cl)c(O)c(Cl)c1")
4
>>> result("NC(=O)c1cccc(-c2cc(Nc3ccc(OC(F)(F)F)cc3)ncn2)c1")
97
>>> result("N#Cc1c(NC(=O)c2cccc3ccccc23)sc2c1CCCC2")
99
>>> result("Cn1c2ccccc2c2c3c(c4c5ccccc5n(CCC#N)c4c21)CNC3=O")
103
>>> result("Nc1nc(Nc2ccc(S(N)(=O)=O)cc2)nn1C(=O)c1c(F)cccc1F")
97

Now consider the entry below.
Task: Supply reported residual activity belonging to this molecule: Cn1sc(=O)n(Cc2ccccc2)c1=O
Output: 90

----------
study_target: Interleukin-1 receptor-associated kinase 4 (Homo sapiens) (UniProt Q9NWZ3)
Sequence (whole entry): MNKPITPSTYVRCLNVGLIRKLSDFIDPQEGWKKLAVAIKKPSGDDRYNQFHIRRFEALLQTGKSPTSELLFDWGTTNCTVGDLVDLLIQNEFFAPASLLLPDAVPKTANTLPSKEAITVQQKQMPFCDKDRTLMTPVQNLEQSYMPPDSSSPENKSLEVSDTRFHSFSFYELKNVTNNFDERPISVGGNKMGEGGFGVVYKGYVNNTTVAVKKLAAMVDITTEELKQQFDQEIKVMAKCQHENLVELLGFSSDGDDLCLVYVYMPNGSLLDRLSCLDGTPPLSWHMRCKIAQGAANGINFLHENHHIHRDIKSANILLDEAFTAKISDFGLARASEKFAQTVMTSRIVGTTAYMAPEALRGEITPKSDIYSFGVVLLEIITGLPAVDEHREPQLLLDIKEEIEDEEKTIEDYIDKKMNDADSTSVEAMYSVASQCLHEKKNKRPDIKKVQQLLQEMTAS
experimental_conditions: at 10 µM
measured_endpoint: residual activity
Give me the value, and tack the unit on after it.

Reference set, count: 6
>>> result("O=C(O)/C=C/c1cc(Br)c(Br)c(Br)c1Br")
"94%"
>>> result("Cn1c2ccccc2c2c3c(c4c5ccccc5n(CCC#N)c4c21)CNC3=O")
"4%"
>>> result("O=C1Nc2ccccc2/C1=C\\c1c(Cl)[nH]c2ccccc12")
"69%"
>>> result("NC(=O)c1ccc(-c2nc(-c3ccc4c(c3)OCCO4)c(-c3ccccn3)[nH]2)cc1")
"97%"
>>> result("CCN(CC)CCNC(=O)c1c(C)[nH]c(/C=C2\\C(=O)Nc3ccc(Cl)cc32)c1C")
"7%"
>>> result("NC(=O)Nc1sc(-c2ccc(F)cc2)cc1C(N)=O")
"9%"

Task: Supply reported residual activity belonging to this compound: O=C1C(Cl)=C(N2C(=O)CCC2=O)C(=O)c2ccccc21
Output: 83%

Task: Supply reported residual activity belonging to this compound: COc1ccc(CNC(=O)Nc2ncc([N+](=O)[O-])s2)cc1
Output: 78%

Task: Supply reported residual activity belonging to this compound: N#C/C(=C\c1ccc(O)c(O)c1)C(=O)NCc1ccccc1
Output: 100%

Task: Supply reported residual activity belonging to this compound: O=C1NC(=O)C(c2cn(CCCn3ccnc3)c3ccccc23)=C1Nc1ccccc1
Output: 32%

Task: Supply reported residual activity belonging to this compound: N#C/C(=C1/Nc2ccccc2S1)c1ccnc(NCCc2cccnc2)n1
Output: 31%

----------
residual activity values for the compounds below.
study_target: Serine/threonine-protein kinase BRSK1 (Homo sapiens) (UniProt Q8TDC3)
Sequence (Q8TDC3 whole entry): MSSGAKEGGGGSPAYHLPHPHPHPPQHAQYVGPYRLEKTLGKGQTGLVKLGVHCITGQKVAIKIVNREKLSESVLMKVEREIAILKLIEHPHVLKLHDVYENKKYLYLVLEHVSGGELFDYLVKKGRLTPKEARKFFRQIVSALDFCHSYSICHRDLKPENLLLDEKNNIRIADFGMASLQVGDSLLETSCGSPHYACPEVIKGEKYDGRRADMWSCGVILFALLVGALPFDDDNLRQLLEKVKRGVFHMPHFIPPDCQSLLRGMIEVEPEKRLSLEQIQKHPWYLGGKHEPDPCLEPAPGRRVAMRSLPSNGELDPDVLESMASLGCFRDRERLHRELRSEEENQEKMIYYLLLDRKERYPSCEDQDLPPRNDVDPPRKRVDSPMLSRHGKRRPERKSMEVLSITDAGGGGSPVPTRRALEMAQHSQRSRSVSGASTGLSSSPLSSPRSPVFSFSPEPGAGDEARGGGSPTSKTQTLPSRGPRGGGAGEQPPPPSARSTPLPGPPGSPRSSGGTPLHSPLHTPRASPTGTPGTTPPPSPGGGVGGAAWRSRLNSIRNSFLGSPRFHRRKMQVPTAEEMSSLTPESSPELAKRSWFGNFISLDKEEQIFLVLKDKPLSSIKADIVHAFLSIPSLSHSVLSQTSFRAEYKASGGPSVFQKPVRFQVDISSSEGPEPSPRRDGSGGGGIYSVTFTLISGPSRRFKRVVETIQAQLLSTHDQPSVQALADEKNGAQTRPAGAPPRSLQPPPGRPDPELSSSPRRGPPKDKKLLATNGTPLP
experimental_conditions: at 10 µM
Give me the value, and tack the unit on after it.

>>> result("Oc1cccc(-c2nc(N3CCOCC3)c3oc4ncccc4c3n2)c1")
"84%"

Task: Supply reported residual activity belonging to this compound: Cn1c2ccccc2c2c3c(c4c5ccccc5n(CCC#N)c4c21)CNC3=O
Output: 6%

Task: Supply reported residual activity belonging to this compound: O=C(NC(NC(=S)Nc1ccc(F)c([N+](=O)[O-])c1)C(Cl)(Cl)Cl)C(c1ccccc1)c1ccccc1 (stereo not drawn)
Output: 63%

----------
study_target: Serine/threonine-protein kinase Chk1 (Homo sapiens) (UniProt O14757)
Sequence (O14757 whole entry): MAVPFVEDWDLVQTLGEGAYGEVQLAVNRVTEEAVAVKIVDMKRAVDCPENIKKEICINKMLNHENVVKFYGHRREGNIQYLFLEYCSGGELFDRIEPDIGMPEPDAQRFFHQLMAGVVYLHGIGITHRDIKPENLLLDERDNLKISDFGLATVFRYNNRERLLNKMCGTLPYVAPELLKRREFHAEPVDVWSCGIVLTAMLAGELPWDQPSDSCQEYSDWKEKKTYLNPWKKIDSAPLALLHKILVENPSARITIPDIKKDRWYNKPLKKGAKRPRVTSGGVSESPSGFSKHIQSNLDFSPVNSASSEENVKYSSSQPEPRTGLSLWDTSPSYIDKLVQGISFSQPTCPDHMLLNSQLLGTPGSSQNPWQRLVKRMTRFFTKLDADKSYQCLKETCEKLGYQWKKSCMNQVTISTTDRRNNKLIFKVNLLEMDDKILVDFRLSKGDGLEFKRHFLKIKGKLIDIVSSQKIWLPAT
experimental_conditions: at 1 µM
Where residual activity equals or exceeds 80%, the correct label is true; where it does not, the label is false.

Task: Answer whether residual activity of NC(=O)Nc1sc(-c2ccc(F)cc2)cc1C(N)=O is greater than or equal to 80%.
Output: false

Task: Answer whether residual activity of COc1cc2c(cc1OC)-c1n[nH]c(Nc3cccc(F)c3)c1C2 is greater than or equal to 80%.
Output: false

Task: Answer whether residual activity of CCN(CC)CCNC(=O)c1c(C)[nH]c(/C=C2\C(=O)Nc3ccc(Cl)cc32)c1C is greater than or equal to 80%.
Output: false

Task: Answer whether residual activity of CC(C)c1nn(-c2c(Cl)cccc2Cl)c2nc(Cc3ccc(OCCO)cc3)[nH]c(=O)c12 is greater than or equal to 80%.
Output: true

----------
study_target: Ribosomal protein S6 kinase alpha-3 (Homo sapiens)
experimental_conditions: at 10 µM
Where residual activity equals or exceeds 50%, the correct label is MET; where it does not, the label is NOT MET.

Some entries whose results are on file:
>>> class_assignment("CC(C)c1nn(-c2c(Cl)cccc2Cl)c2nc(Cc3ccc(OCCO)cc3)[nH]c(=O)c12")
"NOT MET"
>>> class_assignment("Nc1ncnc2c1c(-c1ccc(Oc3ccccc3)cc1)cn2C1CCCC1")
"NOT MET"
>>> class_assignment("O=C1C(Cl)=C(N2C(=O)CCC2=O)C(=O)c2ccccc21")
"MET"
>>> class_assignment("CCN(CC)CCNC(=O)c1c(C)[nH]c(/C=C2\\C(=O)Nc3ccc(Cl)cc32)c1C")
"NOT MET"

Task: Answer whether residual activity of CC(C)N(CCC(=O)c1ccc2ccccc2c1)Cc1ccccc1 is greater than or equal to 50%.
Output: MET

Task: Answer whether residual activity of COc1ccc(COc2ccc(Cc3cnc(N)nc3N)cc2OC)cc1 is greater than or equal to 50%.
Output: MET

----------
study_target: cAMP-dependent protein kinase catalytic subunit PRKX (Homo sapiens) (UniProt P51817)
Sequence (P51817 whole entry): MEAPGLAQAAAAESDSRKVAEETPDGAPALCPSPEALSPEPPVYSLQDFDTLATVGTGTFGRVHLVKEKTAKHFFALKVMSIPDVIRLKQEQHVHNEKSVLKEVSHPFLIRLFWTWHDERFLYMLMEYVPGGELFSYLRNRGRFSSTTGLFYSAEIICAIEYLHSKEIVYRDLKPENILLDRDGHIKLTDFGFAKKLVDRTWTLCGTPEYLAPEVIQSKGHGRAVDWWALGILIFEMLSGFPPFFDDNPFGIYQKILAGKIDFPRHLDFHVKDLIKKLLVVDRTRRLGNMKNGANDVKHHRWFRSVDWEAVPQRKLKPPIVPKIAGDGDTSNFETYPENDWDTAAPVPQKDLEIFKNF
experimental_conditions: at 10 µM
In plain terms, low residual activity, meaning strictly below 90%, gives MET, and everything else gives NOT MET.

>>> class_assignment("O=C(NC(NC(=S)Nc1ccc(F)c([N+](=O)[O-])c1)C(Cl)(Cl)Cl)C(c1ccccc1)c1ccccc1 (configuration not stated)")
"MET"
>>> class_assignment("Cn1c2ccccc2c2c3c(c4c5ccccc5n(CCC#N)c4c21)CNC3=O")
"MET"
>>> class_assignment("N#C/C(=C\\c1ccc(O)c(O)c1)C(=O)NCc1ccccc1")
"MET"
>>> class_assignment("COc1ccc(Cl)cc1NC(=O)Nc1cc(C)nc2ccccc12")
"MET"
>>> class_assignment("COc1ccc(CNC(=O)Nc2ncc([N+](=O)[O-])s2)cc1")
"MET"

Shift focus to the following entry.
Task: Given O=c1cc(N2CCOCC2)oc2c1ccc1ccccc12 , is recorded residual activity strictly lower than 90%?
Output: NOT MET

----------
study_target: Serine/threonine-protein kinase PLK2 (Homo sapiens);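 further: residual PLK2 kinase activity expressed as percent of uninhibited control, measured in MOPS buffer at pH 7.0 with EDTA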
experimental_conditions: at 1 µM
Description: Millipore: Percentage of residual kinase activity of PLK2 at 1uM relative to control. Control inhibitor: Phosphoric acid* at 0.3uM. Buffer: 8 mM MOPS pH 7.0, 0.2 mM EDTA
residual activity values for the molecules below.
Give me the value, and tack the unit on after it.

>>> result("Nc1ncnc2[nH]nc(Nc3ccc(F)cc3)c12")
"102%"
>>> result("O=C1Cc2c([nH]c3ccc(Br)cc23)-c2ccccc2N1")
"99%"

Task: State residual activity on Serine/threonine-protein kinase PLK2 (Homo sapiens). Entry: CC(C)(C)c1nc2c3ccc(F)cc3c3c(=O)[nH]ccc3c2[nH]1
Output: 49%

----------
study_target: SRSF protein kinase 2 (Homo sapiens)
experimental_conditions: at 10 µM
measured_endpoint: residual activity (%)
Field: numeric (%). Do not append units.

Reference set, count: 5
>>> result("O=C1C(Cl)=C(N2C(=O)CCC2=O)C(=O)c2ccccc21")
88
>>> result("O=C(c1cc2cc(O)ccc2[nH]1)c1cc2cc(O)ccc2[nH]1")
71
>>> result("Nc1ncnc2c1cnn2-c1ccccc1")
97
>>> result("Nc1n[nH]c2nc3ccccc3nc12")
82
>>> result("CCOC(=O)c1c(C)[nH]c(/C=C2\\C(=O)Nc3ccccc32)c1C")
89

Now consider the entry below.
Task: Supply reported residual activity belonging to this molecule: O=C1Nc2ccccc2/C1=C\c1c(Cl)[nH]c2ccccc12
Output: 83

All values here come from ChEMBL document CHEMBL2218924.
